// data source = paper PMC5540273

Test system: PAK2
condition_set: concentration: 1 μM, replicates: in singlicate; n = 1;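 note: KINOMEscan kinase panel screen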
quantity_kind: %Inh (%)
Quick reminder: number only, in %, skip the unit.

> print(dat)
                                    compound  quantity.kind  recorded.measurement
 1  CC(C)c1nc(-c2cccc(NS(=O)(=O)c3c(F)cccc3F)c2)c(-c2ccnc(Nc3ccc(N4CCOCC4)nc3)n2)s1.Cl [GSK1723980]           %Inh                    16
 2  CN(C)CCNS(=O)(=O)c1ccc(-c2ccnc3[nH]ccc23)cc1 [GSK977620]           %Inh                    32
 3  Cl.O=C(Nc1ccc(Oc2ccc3[nH]c(NC(=O)c4ccco4)nc3c2)cc1)Nc1cc(C(F)(F)F)ccc1F [GW683134]           %Inh                     0
 4  CCNc1nccc(-c2c(-c3ccc(F)cc3)ncn2C2CCN(C)CC2)n1           %Inh                     8
 5  Cn1cc(-c2ccc3c(c2)CCN3C(=O)Cc2cc(F)cc(C(F)(F)F)c2)c2c(N)ncnc21 [GSK2635225]           %Inh                     0
 6  Nc1ncc(-c2cn[nH]c2)c2scc(-c3ccc4c(c3)CCN4C(=O)Cc3ccccc3)c12 [GSK2593067]           %Inh                     0
 7  COc1cccc(C2=C(Nc3cccc(O)c3)C(=O)NC2=O)c1 [SB-390771]           %Inh                     5
 8  COC(=O)Nc1nc2ccc(Oc3ccc(NC(=O)Nc4cc(C(F)(F)F)ccc4F)cc3)cc2[nH]1.Cl [GW654607]           %Inh                     0
 9  Cc1cc(-c2ccnc(Nc3cccc(C#N)c3)n2)cc(C)c1O [GSK1440913]           %Inh                    28
10  Cl.Cl.NC(CNC(=O)c1cc(Br)c(-c2ccnc3[nH]ccc23)s1)c1ccccc1 (centres unmarked) [GSK1322949]           %Inh                    36

Query: Given the entry CC(=O)Nc1cn2nc(Oc3cccc(NC(=O)c4cccc(C(F)(F)F)c4)c3)ccc2n1 , report its measured %Inh.
Response: 15

Query: Given the entry CN(c1ccc(NC(=O)N2CCN(CCCN3CCOCC3)CC2)cc1)c1ccnc(Nc2ccc(CS(C)(=O)=O)cc2)n1.Cl [GW830899] , report its measured %Inh.
Response: 0

Query: Given the entry Cc1ccc(Nc2ccnc(Nc3ccc(C)c(F)c3)n2)cc1O.Cl [GW582868] , report its measured %Inh.
Response: 0

Query: Given the entry Cc1ccc(C)c(NC(=O)Nc2ccc(C)c(-c3ccc(C(=O)Nc4ccncc4)cc3)c2)c1 [GSK1398473] , report its measured %Inh.
Response: 15

Query: Given the entry COc1cccc(-c2nc(-c3ccccc3)[nH]c2-c2ccncc2)c1 [SB-610250] , report its measured %Inh.
Response: 32

Query: Given the entry O=C(Nc1n[nH]c2nc(-c3cccc(O)c3)ccc12)C1CC1 [SB-711805] , report its measured %Inh.
Response: 18

Query: Given the entry CC(C)c1nc(-c2ccc(F)c(NS(=O)(=O)c3c(F)cccc3F)c2)c(-c2ccnc(Nc3ccc(N4CCOCC4)nc3)n2)s1 [GSK1804250] , report its measured %Inh.
Response: 11

###

System: DCAMKL2
Construct: gene DCLK2
condition_set: concentration: 1 μM, replicates: in singlicate; n = 1
quantity_kind: %Inh
Answer with the value and then the unit.

Here are 2 compounds together with their reported answers.
> print(dat)
                           structure.string  recorded.measurement
1     Cc1ccc(O)cc1Nc1ccnc2ccc(C(C)(C)C)cc12                   18%
2  CN(c1ccc(F)c(NC(=O)c2cccc(OC(C)(C)C#N)c2Cl)c1)c1ccc2nc(NC(=O)C3CC3)sc2n1                    0%

Query: Given the entry Cc1cccc(Nc2nc(NCCN)ncc2C(N)=O)c1 , report its measured %Inh.
Response: 0%

Query: Given the entry Cn1cc(-c2ccc3c(c2)CCN3C(=O)Cc2cc(F)cc(C(F)(F)F)c2)c2c(N)ncnc21 , report its measured %Inh.
Response: 0%

###

Tested on: TRKA
Construct: gene NTRK1
condition_set: concentration: 1 μM, replicates: in singlicate; n = 1
The label is T for %Inh below 60% and F for %Inh equal to or exceeding 60%.

Example results:
> print(dat)
                                   molecule  qualitative.label
1  CSc1ccc(NC2=C(c3ccc(Cl)cc3)C(=O)NC2=O)cc1 [SB-317658]                  T
2  O=C(O)C(F)(F)F.O=c1[nH]ccc2nc(N[C@@H]3CCNC3)nc(Nc3ccc4c(c3)S(=O)(=O)CC4)c12 [GSK2181306]                  F

Query: Is it true that %Inh reported for O=C1NC(=O)C(c2ccccc2Cl)=C1Nc1cccc(Cl)c1 [SB-342409] is less than 60%?
Response: T

Query: Is it true that %Inh reported for Fc1cc(Cl)ccc1Nc1ccnc2cc(-c3ccc(CN4CCSCC4)o3)ccc12 [GW560106] is less than 60%?
Response: F

Query: Is it true that %Inh reported for Cn1cc(-c2cnc(N)c3c(-c4ccc5c(c4)CCN5C(=O)Cc4ccccc4)csc23)cn1 [GSK2593074] is less than 60%?
Response: F

Query: Is it true that %Inh reported for CN(c1ccc(NC(=O)Nc2cccc(Cl)c2)cc1)c1ccnc(N)n1.Cl [GW830707] is less than 60%?
Response: T

Query: Is it true that %Inh reported for Cc1cccc(Nc2nc(N[C@H]3CCCC[C@H]3N)ncc2C(N)=O)c1.Cl [GSK986310] is less than 60%?
Response: F

###

Measured %Inh by item
Test system: NEK4
condition_set: concentration: 1 μM, replicates: in singlicate; n = 1
Quick reminder: number only, in %, skip the unit.

Here are 7 compounds together with their reported answers.
> print(dat)
                                   compound  quantity.kind  readout.unit  recorded.measurement
1  CN(c1ccc2c(c1)nc(NCc1ccccc1)n2C)c1ccnc(Nc2ccc(CS(C)(=O)=O)cc2)n1.Cl           %Inh             %                     0
2  Cc1ccc(NC(=O)c2ccnc(N3CCCCC3)c2)cc1-c1ccc(C(=O)NCC2CC2)cc1           %Inh             %                     0
3  Cc1ccc(-c2ccc3occ(-c4ccc(S(C)=O)cc4)c3c2)nn1 (centres unmarked)           %Inh             %                     0
4  Cc1ccccc1CC(=O)N1CCc2cc(-c3cn(C)c4ncnc(N)c34)ccc21           %Inh             %                    29
5     O=C(Nc1n[nH]c2cc(-c3cccs3)ccc12)C1CC1           %Inh             %                    39
6  COc1cc(Nc2nccc(N3CCC(NC(=O)Nc4ccc5c(c4)OCO5)C3)n2)cc(OC)c1OC (centres unmarked)           %Inh             %                    26
7  O=C(Nc1c(F)cccc1F)c1cc(C(=O)c2ccccc2F)c[nH]1           %Inh             %                     0

Could you now consider this next compound?
Query: Given the entry CC(C)c1nc(-c2cccc(NS(=O)(=O)c3c(F)cccc3F)c2)c(-c2ccnc(Nc3ccc(N4CCOCC4)nc3)n2)s1.Cl , report its measured %Inh.
Response: 6

###

Tested on: MELK
condition_set: concentration: 1 μM, replicates: in singlicate; n = 1
quantity_kind: %Inh (%)
Quick reminder: number only, in %, skip the unit.

> print(dat)
                                   compound  recorded.measurement
1           Nc1cccc(-c2ccc3c(N)n[nH]c3c2)c1                     0
2  COc1ccc(C)c(Nc2ccnc(Nc3ccc(-c4cnc[nH]4)cc3)n2)c1.Cl                    34
3  CN(c1ccc(NC(=O)N2CCN(CCCN3CCOCC3)CC2)cc1)c1ccnc(Nc2ccc(CS(C)(=O)=O)cc2)n1.Cl                     0

Query: Given the entry Cl.Cl.NC(CNC(=O)c1cc(Br)c(-c2ccnc3[nH]ccc23)s1)c1ccccc1 (stereo not drawn) , report its measured %Inh.
Response: 74

Query: Given the entry CSc1ccc(NC2=C(c3ccc(Cl)cc3)C(=O)NC2=O)cc1 , report its measured %Inh.
Response: 0

Query: Given the entry COc1ccc(C2=C(Nc3cccc(O)c3)C(=O)NC2=O)cc1 , report its measured %Inh.
Response: 99.4

Query: Given the entry CN(C)CCOc1ccc(-c2cc(-c3ccc(Cl)c(O)c3)c(-c3ccncc3)[nH]2)cc1.Cl.Cl , report its measured %Inh.
Response: 15

Query: Given the entry Nc1ncc(-c2ccc3nccc(-c4ccncc4)c3c2)cc1S(=O)(=O)N1CCCCC1 , report its measured %Inh.
Response: 36

Query: Given the entry CN(c1ccc(NC(=O)Nc2cccc(Cl)c2)cc1)c1ccnc(N)n1.Cl , report its measured %Inh.
Response: 11

Query: Given the entry CN(C)c1ncnc2nc[nH]c12 , report its measured %Inh.
Response: 0

Query: Given the entry CN1CCN(Cc2ccc(NC(=O)Nc3ccc(N(C)c4ccnc(Nc5ccc(CS(C)(=O)=O)cc5)n4)cc3)cc2)CC1.Cl , report its measured %Inh.
Response: 32

Query: Given the entry Cc1cc(-c2c(-c3ccc(F)cc3)ncn2CCCN2CCOCC2)nc(N)n1 , report its measured %Inh.
Response: 0
